Target: human H4 receptor (Homo sapiens);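 note: radioligand displacement of a [3H]-labelled ligand from membranes of CHO cells stably expressing human H4 receptor, bound radioactivity counted on filters by liquid scintillation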
Sequence (Q9H3N8 whole entry): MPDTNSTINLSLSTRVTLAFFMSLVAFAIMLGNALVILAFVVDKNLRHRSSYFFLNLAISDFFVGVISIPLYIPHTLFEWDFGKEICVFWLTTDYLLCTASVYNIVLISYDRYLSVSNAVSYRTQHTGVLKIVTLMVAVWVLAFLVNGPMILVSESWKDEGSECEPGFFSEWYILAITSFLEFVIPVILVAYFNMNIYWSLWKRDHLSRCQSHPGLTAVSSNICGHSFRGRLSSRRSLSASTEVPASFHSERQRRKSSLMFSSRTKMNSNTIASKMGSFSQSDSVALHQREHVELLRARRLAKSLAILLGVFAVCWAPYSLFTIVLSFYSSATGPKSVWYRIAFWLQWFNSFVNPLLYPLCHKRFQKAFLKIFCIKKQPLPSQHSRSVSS
Assay: biochemical
pKi: −log10 of the molar value.
Catalogue of pKi readings, one per entry.

Study these solved cases before continuing.
Cc1c(-c2ccc(C(=O)N3CCC(=O)CC3)cc2)nc2n1CCc1ccccc1C2OC1CCN(C)CC1 (stereo not drawn) = > 6.52
Cc1c(-c2ccsc2)nc2n1CCc1ccccc1C2OC1CCN(C)CC1 (stereo not drawn) = > 7.52
CN(C)CCOc1ccc(-c2cn3c(n2)C(OC2CCN(C)CC2)c2ccccc2CC3)cc1 (stereo not drawn) = > 6.52
CCc1ccc(-c2cn3c(n2)C(OC2CCN(C)CC2)c2ccccc2CC3)cc1 (stereo not drawn) = > 6.52
Cc1c(-c2ccncc2)nc2n1CCc1ccccc1C2OC1CCN(C)CC1 (stereo not drawn) = > 6.00
CCCc1ccc(-c2cn3c(n2)C(OC2CCN(C)CC2)c2ccccc2CC3)cc1 (stereo not drawn) = > 7.52
COc1ccc(-c2nc3n(c2C)CCc2ccccc2C3OC2CCN(C)CC2)cc1 (stereo not drawn) = > 7.52
CN1CCC(OC2c3ccccc3CCn3cc(-c4ccc(CN5CCCCCC5=O)cc4)nc32)CC1 (stereo not drawn) = > 6.52

Proceeding to the next compound to report its pKi.
Query: So what pKi did Ic1nc2n(c1I)CCc1ccccc1C2OCCN1CCCCC1 (stereo not drawn) get with human H4 receptor (Homo sapiens)?
Result: > 6.00
